Measured values drawn from patent US20150274820A1 for this set.

biological target: recombinant rat VEGF164 (rat) (UniProt P16612); test: Biacore SPR, VEGF immobilized, pH 5
readout: koff (s⁻¹)
Numbers only, in s⁻¹.

Value lookup for koff; key = 567-max (scFv, VL and VH tied by name; also called Protein Nr; 874) scFv: EIVMTQSPSTLSASVGDRVIITCQADQSIYIWLSWYQQKPGKAPKLLIYKASTLESGVPSRFSGSGSGTQFTLTISSLQPDDFATYYCQNNAHYSTNGGTFGQGTKLTVLGGGGGSGGGGSGGGGSGGGGSEVQLVESGGGLVQPGGSLRLSCSVSGFSLSDYYMCWVRQAPGKGLEWVGCLDYFGSTDDASWAKGRFTISKDTSKNTVYLQMNSLRAEDTAVYYCARTDDSRGWGLNIWGQGTLVTVSS
0.000203
